All figures here come from patent US8624002B2.

Below is a list of entries, each paired with its recorded EC50 value.
Experiment: Biotin-PGE2 ELISA (PGE2-biotinamide binding to captured IgG)
Express the result in pM but write the number alone.

The reported EC50 of the molecule Hu2B5.4: humanized 2B5-8.0; VH SEQ ID NO 66, VL SEQ ID NO 67 (antibody, V domains shown) VH: EVQLVQSGAEVKKPGASVKVSCKASGYTFTKYWLGWVRQAPGQGLEWIGDIYPGYDYTHYNEKFKDRATLTVDTSTSTAYMELSSLRSDDTAVYYCARSDGSSTYWGQGTLVTVSS VL: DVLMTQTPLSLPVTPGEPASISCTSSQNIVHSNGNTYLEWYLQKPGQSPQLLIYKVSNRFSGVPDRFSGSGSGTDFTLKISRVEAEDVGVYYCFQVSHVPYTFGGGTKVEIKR was 57

The record that follows has no EC50 shown yet.
For Hu2B5.8: humanized 2B5-8.0; VH SEQ ID NO 74, VL SEQ ID NO 75 (antibody, V domains shown) VH: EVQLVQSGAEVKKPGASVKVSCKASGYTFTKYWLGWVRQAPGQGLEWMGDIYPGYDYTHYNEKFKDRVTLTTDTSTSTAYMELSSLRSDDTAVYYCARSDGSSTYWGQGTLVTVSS VL: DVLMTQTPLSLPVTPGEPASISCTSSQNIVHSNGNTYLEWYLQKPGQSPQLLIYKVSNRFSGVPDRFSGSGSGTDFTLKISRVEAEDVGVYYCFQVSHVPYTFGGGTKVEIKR the molecule record lists EC50 as 87
